Hello, the source for this data is patent US20200339648A1, in case you need it.

EC50 (CD25+) pSTAT5, murine T (CTLL-2, CD25+) cells listing for selected binders.
Molecular target: T1, mouse IL-2Rβγc on murine cells (CTLL-2 T cells, primary CD4+ T cells) (mouse, UniProt P16297 27-539; P34902 23-369)
T1 sequence (looked up) 1: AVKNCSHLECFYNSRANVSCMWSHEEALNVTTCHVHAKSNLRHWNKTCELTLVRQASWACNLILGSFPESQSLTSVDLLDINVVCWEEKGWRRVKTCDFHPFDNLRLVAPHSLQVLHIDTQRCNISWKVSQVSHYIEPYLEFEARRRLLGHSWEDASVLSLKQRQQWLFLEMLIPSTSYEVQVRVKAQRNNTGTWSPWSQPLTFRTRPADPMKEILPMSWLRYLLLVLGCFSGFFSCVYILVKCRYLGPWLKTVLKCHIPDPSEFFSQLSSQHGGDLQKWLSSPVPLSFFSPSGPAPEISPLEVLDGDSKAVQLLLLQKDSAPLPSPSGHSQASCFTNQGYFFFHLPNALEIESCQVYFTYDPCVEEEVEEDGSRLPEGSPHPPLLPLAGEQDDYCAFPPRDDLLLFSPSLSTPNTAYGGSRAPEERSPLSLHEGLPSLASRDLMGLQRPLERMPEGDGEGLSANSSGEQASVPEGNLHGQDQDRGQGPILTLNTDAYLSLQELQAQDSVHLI
T1 sequence (looked up) 2: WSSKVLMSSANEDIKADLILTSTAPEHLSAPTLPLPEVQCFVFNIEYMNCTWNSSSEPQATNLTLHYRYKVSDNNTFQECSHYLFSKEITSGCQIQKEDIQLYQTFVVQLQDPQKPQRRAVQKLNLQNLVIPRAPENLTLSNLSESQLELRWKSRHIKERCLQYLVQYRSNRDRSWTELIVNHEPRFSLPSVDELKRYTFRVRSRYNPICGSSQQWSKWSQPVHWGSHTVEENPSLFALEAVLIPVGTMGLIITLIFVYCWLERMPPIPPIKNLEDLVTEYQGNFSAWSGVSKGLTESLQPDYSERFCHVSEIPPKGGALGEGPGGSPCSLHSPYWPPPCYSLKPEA
Test: cell-based or functional assay
Report the value in nM with no unit label.

Some binders with known EC50 (CD25+) pSTAT5, murine T (CTLL-2, CD25+) cells results, for comparison:
INSERT INTO measurements (binder, value) VALUES
  ('G1_neo2_40_1F_H5 (designed binder) STKKTQLLIEHALLDALHMSRKLPEPNEKLSRIITTMQSWIFTGKIDGDGAQHLAKEVEELEQEHEKRGGEVEDEASNLKVILLELA', 84.7),
  ('G2_neo2_40_1F_dsn29 (designed binder, E. coli, N-terminal 6xHis tag and thrombin site) EDYYSNLKVILEELAREMERNGLSDKAEEWRQWKKIVERIRQIRSNNSDLNEAKELLNRLITYIQSQIFEISERIRETDQEKKEESWKKWQLLLEHALLDVLMLLND', 0.48),
  ('G2_neo2_40_1F_dsn30 (designed binder, E. coli, N-terminal 6xHis tag and thrombin site) PEKKRQLLLEHILLDALMLLNLLETNPQNTESKFEDYISNAEVIAEELAKLMESLGLSDEAEKFKKIKQWLREVWRIWSSTNWSTLEDKARELLNRIITTIQSQIFY', 7.61);

Consider now this further binder.
Input line: Which EC50 (CD25+) pSTAT5, murine T (CTLL-2, CD25+) cells is reported for this binder? G2_neo2_40_1F_dsn40 (designed binder, E. coli, N-terminal 6xHis tag and thrombin site) PEKKRQLLAEHALLDALMILNIIRTNSDNTESKLEDYISNLKVILEEIARLMESLGLSDEAEKAKEAMRLADKAGSTASEEEKKEAMNRVITWAQSWIFN
Output line: 0.5
